- study.system: holo PGHS (peroxidase activity) (Ovis aries)
- Construct: PGHS was purified from ram seminal vesicles
- Sequence (P05979 25-600): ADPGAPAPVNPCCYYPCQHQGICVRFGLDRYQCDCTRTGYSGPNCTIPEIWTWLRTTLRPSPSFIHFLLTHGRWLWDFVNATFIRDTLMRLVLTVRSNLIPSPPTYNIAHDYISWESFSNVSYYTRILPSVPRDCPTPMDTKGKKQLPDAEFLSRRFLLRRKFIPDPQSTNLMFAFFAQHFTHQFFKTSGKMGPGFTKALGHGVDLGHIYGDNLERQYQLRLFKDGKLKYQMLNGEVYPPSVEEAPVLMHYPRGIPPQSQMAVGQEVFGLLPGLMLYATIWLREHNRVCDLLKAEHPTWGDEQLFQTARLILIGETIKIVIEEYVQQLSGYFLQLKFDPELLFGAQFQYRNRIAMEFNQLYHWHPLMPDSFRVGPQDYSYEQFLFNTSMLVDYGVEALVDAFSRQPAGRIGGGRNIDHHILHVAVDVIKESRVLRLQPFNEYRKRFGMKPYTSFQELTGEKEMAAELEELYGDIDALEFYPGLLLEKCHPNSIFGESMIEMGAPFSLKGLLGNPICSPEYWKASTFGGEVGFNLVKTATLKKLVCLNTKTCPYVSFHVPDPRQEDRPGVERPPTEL
- measurement.protocol: Instantaneous inactivation of peroxidase activity (guaiacol oxidation)
- test.conditions: enzyme 0.25 μM
- Description: PGHS was purified from ram seminal vesicles. Enzyme aliquots were added to 100 mM Tris HCl (pH 8) containing […] heme, 500 μM guaiacol in disposible cuvettes. Reaction was initiated by the addition of 400 μM H2 O2. This reaction mixture was treated with a given concentration of the inhibitor and then as quickly as possible the peroxidase reaction was initiated by the addition of 0.4 mM H2 O2. The initial rates of oxidation were measured for 20 sec at a repeat rate of 1 second. (Table 4)
pIC50: −log10 of the molar value.
List of pIC50 values.

# get_value(readout='pIC50', item= "O=C(O)CCCCCCN1C(=O)C=CC1=O" ) < 3.10

API: the following record is the query input.
pIC50 for "O=C(O)CCCCCN1C(=O)C=CC1=O" ? < 3.10

The measured values listed here are drawn from patent US5475021A.
